test-name: Pharmacokinetic analysis of vorinostat and two metabolites
Type: in vivo, human
protocol-conditions: human, serum, po, 100 mg, Vorinostat Median Cmax (Range), vorinostat 100 mg TID for 3 days oral, with idarubicin; N=3
readout-type: Cmax

Measured Cmax, O=C(CCCCCCC(=O)Nc1ccccc1)NO : 331 nM

----------
test-name: Pharmacokinetic analysis of vorinostat and two metabolites
Assay type: in vivo, human
protocol-conditions: human, serum, po, 100 mg
readout-type: Tmax

Measured Tmax, O=C(CCCCCCC(=O)Nc1ccccc1)NO : 2.5 h

----------
test-name: Pharmacokinetic analysis of vorinostat and two metabolites
Type: in vivo, human
protocol-conditions: human, serum, po, 200 mg, Vorinostat Median Cmax (Range), vorinostat 200 mg TID for 3 days oral, with idarubicin; N=3
readout-type: Cmax

Measured Cmax, O=C(CCCCCCC(=O)Nc1ccccc1)NO : 443 nM

----------
test-name: Pharmacokinetic analysis of vorinostat and two metabolites
Type: in vivo, human
protocol-conditions: human, serum, po, 400 mg
readout-type: Tmax (h)
Number in h, nothing else.

Measured Tmax, O=C(CCCCCCC(=O)Nc1ccccc1)NO : 2.25

----------
test-name: Pharmacokinetic analysis of idarubicin in plasma
Type: in vivo, human
protocol-conditions: human, plasma, iv, Maximum idarubicin plasma concentration (cmax), range, schedule A; idarubicin 30-min intravenous infusion
readout-type: Cmax

Measured Cmax, CC(=O)[C@]1(O)Cc2c(O)c3c(c(O)c2[C@@H](O[C@H]2C[C@H](N)[C@H](O)[C@H](C)O2)C1)C(=O)c1ccccc1C3=O : 19.5 to 139 ng/mL

----------
test-name: Pharmacokinetic analysis of vorinostat and two metabolites
Format: in vivo, human
protocol-conditions: human, serum, po, 200 mg, Vorinostat Mean Cmax, vorinostat 200 mg TID for 3 days oral, with idarubicin; N=3
readout-type: Cmax (nM)
Number in nM, nothing else.

Measured Cmax, O=C(CCCCCCC(=O)Nc1ccccc1)NO [vorinostat] : 522

----------
test-name: Pharmacokinetic analysis of idarubicin in plasma
Type: in vivo, human
protocol-conditions: human, plasma, iv, Maximum idarubicin plasma concentration (cmax), mean, schedule A; idarubicin 30-min intravenous infusion
readout-type: Cmax (ng/mL)
Number in ng/mL, nothing else.

Measured Cmax, CC(=O)[C@]1(O)Cc2c(O)c3c(c(O)c2[C@@H](O[C@H]2C[C@H](N)[C@H](O)[C@H](C)O2)C1)C(=O)c1ccccc1C3=O : 66.1
